Target: Alpha-bungarotoxin (Bungarus multicinctus)
Assay: alpha-bungarotoxin binders on microarray, profiling panel, artefact control for SMM control protein annotation, biochemical, small-molecule microarray, Alexa647 label, 635/667 nm fluorescence (AID 1117)
Settings: alpha-BTX-A647 binding fluorescence, higher = more signal
Binary classification by composite z-score, with 0.4 as an inclusive lower bound for Met; all other cases are Not met.

- molecule: "C=CCNC(=O)[C@H]1[C@@H]2C(=O)O[C@@H](c3ccccc3)[C@@H](c3ccccc3)N2[C@@H](c2ccc(O)cc2)[C@]12C(=O)Nc1ccc(C#CC3(O)CCCCCC3)cc12"
  classification: "Met"
- molecule: "CCCCN1CC=CC23O[C@@H]4/C=C\\CCC(C)OC(=O)C4[C@H]2C(=O)N(C(CO)C(C)C)[C@@H]3C1=O (some centres not stated)"
  classification: "Not met"
- molecule: "CCCC[C@@H](O)C1=C(COc2ccccc2)C[C@H]2C(=O)N(C)C(=O)[C@H]2[C@H]1CO"
  classification: "Not met"
- molecule: "Cc1cc(C)c(C(O)C2C=CC3C(=O)N(c4ccccc4)C(=O)C3N2Nc2ccc(C(C)C)cc2)c(C)c1 (configuration not stated)"
  classification: "Met"
- molecule: "CC(C)(C)N1CC=CC23O[C@@H]4C=CCOC(=O)[C@@H]4[C@H]2C(=O)N(CCCCCCO)[C@@H]3C1=O (some centres not stated)"
  classification: "Not met"
- molecule: "CC1=C([C@H](O)CCc2ccccc2)[C@H](CO)[C@@H]2C(=O)N(C)C(=O)[C@@H]2C1"
  classification: "Not met"
- molecule: "CN1C(=O)C2C=CC(C(O)COCc3ccccc3)N(N(c3ccccc3)c3ccccc3)C2C1=O (configuration not stated)"
  classification: "Met"

* * *

Test: cell viability in Huh7 cells, primary screen, cytotoxicity control for HCV replication inhibitor project, CellTiter-Glo luminescence, basal, 48 h (AID 1143);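 also: Huh7 hepatoma cells carrying a hepatitis C replication reporter with no stimulus; test concentration not given here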
Conditions: Huh7 HCV replicon, higher = more signal, called active from +8 up or from −8 down
reported_metric: z-score

- molecule: "[N-]=[N+]=NCc1ccccc1[C@H]1OC(c2ccc(OCCCO)cc2)=N[C@@]1(CCS(=O)(=O)c1ccccc1)C(=O)NCC(O)CO (some centres undefined)"
  reported_metric: "z-score"
  readout_value: -0.119
- molecule: "CC=CC(O)C1C=CC2C(=O)N(c3ccccc3)C(=O)C2N1Nc1ccccc1F (centres undefined)"
  reported_metric: "z-score"
  readout_value: -0.118
- molecule: "Cc1ccc(S[C@]2(C(=O)NCCCN(C)C)CC(=O)N(C3CCCCC3)[C@@H]2c2ccc(CO)cc2)cc1"
  reported_metric: "z-score"
  readout_value: -1.19
- molecule: "C=CCN1Cc2ccccc2[C@H]2OC(c3ccc(OCCCO)cc3)=N[C@@]2(CC=C)C1=O"
  reported_metric: "z-score"
  readout_value: -3.16
- molecule: "N#Cc1ccc(C(O)C2C=CC3C(=O)N(c4ccccc4)C(=O)C3N2Nc2ccccc2)cc1 (centres undefined)"
  reported_metric: "z-score"
  readout_value: -3.06
- molecule: "COCCOC(=O)N1C(=O)[C@@]2(c3cc(C#CC4=CCCCC4)ccc31)[C@H](c1ccccc1OCCO)N1[C@H](c3ccccc3)[C@H](c3ccccc3)OC(=O)[C@H]1[C@@H]2C(=O)Nc1nc2ccccc2s1"
  reported_metric: "z-score"
  readout_value: -2.06
- molecule: "CC(=O)c1ccc(C(O)C2C=CC3C(=O)N(c4ccccc4)C(=O)C3N2Nc2ccc(C#N)cc2)cc1 (centres undefined)"
  reported_metric: "z-score"
  readout_value: 0.338
- molecule: "[N-]=[N+]=Nc1ccccc1[C@H]1OC(c2ccc(OCCCO)cc2)=N[C@@]1(Cc1ccccc1)C(=O)N1CCCCC1"
  reported_metric: "z-score"
  readout_value: -3.95
- molecule: "COC(=O)c1c2oc(c1C(=O)OC)C(=O)N(C)Cc1cn(nn1)C[C@H](Cc1ccccc1)NC(=O)N[C@H](CO)CC2"
  reported_metric: "z-score"
  readout_value: 0.336
- molecule: "C=CCOC(=O)[C@H]1[C@@H]2C(=O)O[C@@H](c3ccccc3)[C@@H](c3ccccc3)N2[C@@H](c2ccc(OCCOC(=O)[C@H]3C[C@H]4C(=O)N[C@@H](CC(C)C)C(=O)N4[C@H]3c3cccc(OCCO)c3)cc2)[C@]12C(=O)Nc1ccc(I)cc12"
  reported_metric: "z-score"
  readout_value: 0.0478
- molecule: "C[C@@H]1NC(=O)[C@@]23C(=O)N[C@@H](Cc4ccccc4)C2[C@H](C)[C@@]2(C)O[C@H]2C3/C=C/C/C=C\\CNC(=O)[C@@H]2CCCN2C1=O (some centres undefined)"
  reported_metric: "z-score"
  readout_value: -0.0642
- molecule: "COC(=O)[C@@]1(Cc2ccccc2)[C@H]2c3cc(C(=O)N(C)C)n(CCN4CNCC4=O)c3C[C@H]2CN1C(=O)c1ccccc1"
  reported_metric: "z-score"
  readout_value: 0.106
- molecule: "O=C(CS)NCCCCCCNC(=O)[C@H]1C[C@H]2C(=O)N[C@@H](Cc3ccccc3)C(=O)N2[C@H]1c1ccc(O)cc1"
  reported_metric: "z-score"
  readout_value: 0.167
- molecule: "CCCCCCCCCCC(O)C1C=CC2C(=O)N(C)C(=O)C2N1Nc1ccc([N+](=O)[O-])cc1[N+](=O)[O-] (centres undefined)"
  reported_metric: "z-score"
  readout_value: -0.646

* * *

Target: Fibroblast growth factor 2 (Homo sapiens) (UniProt P09038)
Sequence (P09038 whole entry, looked up): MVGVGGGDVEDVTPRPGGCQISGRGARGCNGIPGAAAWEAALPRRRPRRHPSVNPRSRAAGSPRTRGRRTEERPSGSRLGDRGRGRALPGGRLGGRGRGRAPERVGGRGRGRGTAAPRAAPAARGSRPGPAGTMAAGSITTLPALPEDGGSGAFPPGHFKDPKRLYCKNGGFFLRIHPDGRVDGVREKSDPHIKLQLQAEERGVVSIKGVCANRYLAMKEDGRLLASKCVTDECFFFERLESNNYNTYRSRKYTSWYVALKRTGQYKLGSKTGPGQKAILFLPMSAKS
Assay: FGF2 binders on small-molecule microarrays, primary screen, biochemical, small-molecule microarray, 635/667 nm fluorescence (AID 1133)
Conditions: small-molecule microarray binding, FGF2, fluorescence 635/667; higher = more signal
Quick reference for composite z-score among some compounds
reported_metric: composite z-score

- compound: "C=CCN1C(=O)[C@@]2(O[C@@H](CCn3cc([C@H](O)c4ccccc4)nn3)[C@H]([Si](C)(C)c3ccc(OC)cc3)[C@H]2C)c2cc(N3CCC3=O)ccc21"
  readout_value: 0.0863
- compound: "NC(=O)NCC#Cc1ccc2c(c1)[C@]1(C(=O)N2)[C@H](C(=O)NC[C@H](O)c2ccccc2)[C@H]2C(=O)O[C@H](c3ccccc3)[C@H](c3ccccc3)N2[C@@H]1c1ccc(OCCO)cc1"
  readout_value: 0.177
- compound: "CC(C)(C)OC(=O)CC[C@@]1(C(=O)NCc2ccccc2)N=C(c2ccc(OCCCO)cc2)O[C@@H]1c1ccccc1N=[N+]=[N-]"
  readout_value: 1.58
- compound: "OCC1CC(c2ccccc2)=NO1 (configuration not stated)"
  readout_value: 0.774
- compound: "CN(C)C(=O)[C@@]1(CCS(=O)(=O)c2ccccc2)N=C(c2ccc(OCCCO)cc2)O[C@H]1c1ccccc1"
  readout_value: -0.663
- compound: "CCOC(=O)C1=CC[C@@H](c2ccc(OCc3ccccc3)c(OC)c2)N(S(=O)(=O)c2ccc(C)cc2)[C@H]1c1ccc(SC)cc1"
  readout_value: 0.159
- compound: "O=C(NCC(F)(F)F)[C@@H]1c2ccccc2C(=O)N(Cc2ccccc2C(F)(F)F)[C@H]1c1ccc(CO)cc1"
  readout_value: 0.548

* * *

System: Human papillomavirus type 1a protein E7 (residues 44-93)
Assay: HPV1a E7 fragment binders on microarrays, primary screen, biochemical, small-molecule microarray, residues 44-93, 635 nm fluorescence (AID 1108);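 also: E7 fragment applied at 1 µg/mL in TBST for 1 h at 4 C; score combines spot fluorescence with its signal to noise ratio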
Settings: small-molecule microarray binding, fluorescence 635 nm; higher = more signal
Binary classification by composite z-score, with 0.5 as an inclusive lower bound for Fulfilled; all other cases are Not fulfilled.

- compound: "CCOC(=O)C[C@H]1[C@H](OC(=O)c2ccccc2-c2ccccc2)[C@@H](NC(=O)c2ccc(-c3ccccc3)cc2)c2cc(OCCCO)ccc2N1C(=O)c1ccc2ccccc2n1"
  assay_target: "Human papillomavirus type 1a protein E7 (residues 44-93)"
  classification: "Fulfilled"
- compound: "CN(C)C(=O)C1N=C(c2ccc(OCCCO)cc2)N(c2ccccc2)O1 (configuration not stated)"
  assay_target: "Human papillomavirus type 1a protein E7 (residues 44-93)"
  classification: "Fulfilled"
- compound: "Cc1ccc(S[C@]2(C(=O)NCCCN(C)C)CC(=O)N(C3CCCCC3)[C@@H]2c2ccc(CO)cc2)cc1"
  assay_target: "Human papillomavirus type 1a protein E7 (residues 44-93)"
  classification: "Not fulfilled"
- compound: "COC(=O)[C@@]1(Cc2ccc(OC)cc2)[C@H]2c3cc(C(=O)N4CCCC4)n(Cc4c(-c5ccccc5)noc4C)c3C[C@H]2CN1C(=O)c1ccccc1"
  assay_target: "Human papillomavirus type 1a protein E7 (residues 44-93)"
  classification: "Fulfilled"
- compound: "COc1cccc(/C=C/C=O)c1"
  assay_target: "Human papillomavirus type 1a protein E7 (residues 44-93)"
  classification: "Not fulfilled"
- compound: "COC(=O)c1c2oc(c1C(=O)OC)C(=O)N(Cc1ccccc1)Cc1cn(nn1)C[C@H](Cc1ccccc1)NC(=O)N[C@H](CO)CC2"
  assay_target: "Human papillomavirus type 1a protein E7 (residues 44-93)"
  classification: "Not fulfilled"
- compound: "C=CCC(OC(C)=O)[C@@H]1[C@@H](N(Cc2ccc(-c3cccc(C(F)(F)F)c3)o2)C(=O)c2ccc(C)cc2)c2cc(OCCCO)ccc2N1C(=O)c1ccc2ccccc2c1 (some centres not stated)"
  assay_target: "Human papillomavirus type 1a protein E7 (residues 44-93)"
  classification: "Not fulfilled"

Origin of measurements: PubChem BioAssay
